# assay: recombinant UMI read abundance after kanamycin selection (control-corrected) (log10(CPM+1)); higher = more efficient recombination; extreme values may be limits of the assay; sequences stand for … in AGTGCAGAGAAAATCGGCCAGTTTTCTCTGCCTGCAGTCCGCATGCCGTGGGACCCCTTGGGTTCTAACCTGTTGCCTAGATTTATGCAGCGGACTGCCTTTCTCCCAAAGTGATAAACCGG…AGGTTGGTTTCACT; site = the 11-nt donor;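 further: IS621 bridge recombinase in Escherichia coli cells against a fixed T5 target plasmid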
quantity measured: recombinant UMI read abundance (log10)
A bare number is all that is needed in reply.

Check out these entries, answers already filled in.
| record sequence | recombinant UMI read abundance (log10) |
| --- | --- |
| CCCGTATCATGGACCGGTTTTCCCGGTAATCCGTATTTGGT (site CCCGTATCTAC) | 0.563 |
| GTTCGAACATGGACCGGTTTTCCCGGTAATCCGTATTTGCA (site GTTCGACCTTG) | 0 |
| TACCTTCCATGGACCGGTTTTCCCGGTAATCCGTATTTGGC (site TACCTTCCTGC) | 0 |
| ACGTTCACATGGACCGGTTTTCCCGGTAATCCGTATTTGCC (site ACGTTCACTGG) | 2.69 |
| AGTTCAGCATGGACCGGTTTTCCCGGTAATCCGTATTTGGG (site AGATCAGCTCC) | 0.0116 |
| CCCACATCATGGACCGGTTTTCCCGGTAATCCGTATTTGTC (site CCCACATCTGA) | 0.453 |
| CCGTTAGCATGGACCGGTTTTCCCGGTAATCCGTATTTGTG (site CCGTTAGCTAA) | 0.0124 |
| CGAGGTGCATGGACCGGTTTTCCCGGTAATCCGTATTTGAT (site CCAGGTGCTAT) | 1.37 |

Turning now to a further sequence:
Input: # return recorded recombinant UMI read abundance (log10) for entry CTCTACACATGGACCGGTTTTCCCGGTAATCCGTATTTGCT (site CTCTAGACTAG)
Output: 0.0131
